Target: hFASN enzyme (full length) (Homo sapiens)
Construct: 10 μL hFASN enzyme (full length, 300 ng, purified in house); made in house
Sequence (P49327 whole entry): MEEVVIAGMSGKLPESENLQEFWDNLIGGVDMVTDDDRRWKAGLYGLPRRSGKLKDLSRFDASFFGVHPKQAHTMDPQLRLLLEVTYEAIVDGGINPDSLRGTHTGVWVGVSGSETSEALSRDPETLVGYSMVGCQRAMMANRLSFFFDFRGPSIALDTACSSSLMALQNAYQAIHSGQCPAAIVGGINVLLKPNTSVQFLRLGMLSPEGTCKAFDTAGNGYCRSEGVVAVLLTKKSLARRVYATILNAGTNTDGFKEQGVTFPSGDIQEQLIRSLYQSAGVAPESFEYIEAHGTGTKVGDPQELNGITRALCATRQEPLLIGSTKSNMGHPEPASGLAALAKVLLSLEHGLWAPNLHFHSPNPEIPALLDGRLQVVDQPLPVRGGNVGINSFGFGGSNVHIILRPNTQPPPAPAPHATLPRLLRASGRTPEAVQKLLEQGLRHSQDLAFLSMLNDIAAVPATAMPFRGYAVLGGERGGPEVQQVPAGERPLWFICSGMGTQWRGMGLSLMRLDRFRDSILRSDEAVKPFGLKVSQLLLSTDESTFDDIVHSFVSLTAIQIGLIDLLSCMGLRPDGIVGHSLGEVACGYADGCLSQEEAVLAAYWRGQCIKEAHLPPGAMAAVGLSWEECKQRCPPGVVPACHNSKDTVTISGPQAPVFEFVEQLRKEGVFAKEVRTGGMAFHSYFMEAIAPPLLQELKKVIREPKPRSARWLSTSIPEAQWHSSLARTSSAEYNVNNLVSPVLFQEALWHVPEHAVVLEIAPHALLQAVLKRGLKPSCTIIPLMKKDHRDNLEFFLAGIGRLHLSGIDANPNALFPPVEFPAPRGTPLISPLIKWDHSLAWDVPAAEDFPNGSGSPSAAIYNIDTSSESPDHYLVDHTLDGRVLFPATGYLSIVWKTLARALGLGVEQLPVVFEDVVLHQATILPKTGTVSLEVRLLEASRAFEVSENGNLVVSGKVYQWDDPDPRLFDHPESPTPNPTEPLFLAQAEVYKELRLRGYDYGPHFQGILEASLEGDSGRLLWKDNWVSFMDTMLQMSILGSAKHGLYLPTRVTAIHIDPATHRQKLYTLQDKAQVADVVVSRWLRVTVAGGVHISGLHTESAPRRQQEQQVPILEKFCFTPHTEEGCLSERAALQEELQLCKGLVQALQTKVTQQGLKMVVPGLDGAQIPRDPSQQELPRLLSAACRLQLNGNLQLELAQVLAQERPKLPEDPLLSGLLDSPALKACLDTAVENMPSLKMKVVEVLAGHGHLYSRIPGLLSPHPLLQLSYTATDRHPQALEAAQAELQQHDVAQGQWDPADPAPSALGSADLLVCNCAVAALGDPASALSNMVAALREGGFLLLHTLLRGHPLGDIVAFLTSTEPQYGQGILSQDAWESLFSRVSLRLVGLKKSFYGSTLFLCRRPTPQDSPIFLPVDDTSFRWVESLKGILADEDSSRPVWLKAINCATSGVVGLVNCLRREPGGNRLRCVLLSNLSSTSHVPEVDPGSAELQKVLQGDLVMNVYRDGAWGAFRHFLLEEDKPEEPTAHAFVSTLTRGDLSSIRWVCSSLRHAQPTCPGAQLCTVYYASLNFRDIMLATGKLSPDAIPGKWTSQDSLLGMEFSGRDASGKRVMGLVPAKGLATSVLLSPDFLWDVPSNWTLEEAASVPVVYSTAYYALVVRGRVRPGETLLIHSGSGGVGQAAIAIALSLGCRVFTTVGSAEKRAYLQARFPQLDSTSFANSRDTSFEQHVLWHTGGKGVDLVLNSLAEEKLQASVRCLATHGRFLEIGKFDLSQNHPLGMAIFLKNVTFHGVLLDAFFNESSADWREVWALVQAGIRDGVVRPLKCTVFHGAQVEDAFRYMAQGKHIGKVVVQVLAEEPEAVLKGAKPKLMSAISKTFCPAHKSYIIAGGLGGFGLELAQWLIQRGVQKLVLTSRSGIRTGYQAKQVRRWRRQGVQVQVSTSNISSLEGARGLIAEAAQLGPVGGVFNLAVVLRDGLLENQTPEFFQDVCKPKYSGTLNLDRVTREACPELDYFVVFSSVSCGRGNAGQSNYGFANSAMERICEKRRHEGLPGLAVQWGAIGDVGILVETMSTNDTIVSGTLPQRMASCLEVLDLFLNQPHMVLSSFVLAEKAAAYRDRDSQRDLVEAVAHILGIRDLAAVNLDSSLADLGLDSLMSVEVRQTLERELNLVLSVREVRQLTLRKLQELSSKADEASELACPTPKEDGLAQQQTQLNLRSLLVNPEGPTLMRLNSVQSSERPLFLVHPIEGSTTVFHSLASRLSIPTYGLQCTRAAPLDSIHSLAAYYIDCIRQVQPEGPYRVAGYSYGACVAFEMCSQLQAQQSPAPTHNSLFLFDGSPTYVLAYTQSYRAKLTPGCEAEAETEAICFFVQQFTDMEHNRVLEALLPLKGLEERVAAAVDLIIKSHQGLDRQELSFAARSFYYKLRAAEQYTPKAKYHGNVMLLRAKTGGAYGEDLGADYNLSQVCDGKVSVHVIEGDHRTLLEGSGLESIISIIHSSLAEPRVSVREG
Experiment: Fatty Acid Synthase (FASN) Inhibition Scintillation Proximity Assay
Type: biochemical
Details: read-out: FASN % Effect @1E−05M
Procedure: In this assay, inhibition of FASN activity is measured using ^3H-acetyl-CoA and malonyl-CoA as substrates. ^3H-Acetyl CoA is converted to ^3H-palmitate through a series of reactions by the FASN protein, which contains 7 functional domains and carries out 7 enzymatic reactions to ultimately produce ^3H-palmitate. […] Raw data generated by the instrument were normalized to % Controlmin values, which were calculated as: % Controlmin=100*(x−mLC)/(mHC−mLC) […]
Assign inhibition at 10 µM to each entry below.
Please respond with the number in % and leave the unit unwritten.

So, CC(C)Nc1ccc(C(=O)Nc2cc(C(=O)N3CCC(c4ccc(-c5cnn(C)c5)cc4)CC3)ccc2N(C)C)cn1 ? Its inhibition at 10 µM was 99

So, Cc1ccc(C(=O)N2CCC(c3ccc(-c4cnn(C)c4)cc3)CC2)cc1NC(=O)c1ccc2[nH]ccc2c1 ? Its inhibition at 10 µM was 100

So, Cc1ccc(C(=O)N2CCC(c3ccc4ncsc4c3)CC2)cc1NC(=O)c1ccc(Cl)nc1 ? Its inhibition at 10 µM was 60

So, CCCCC(C)N1CCC(C(=O)Nc2cc(C(=O)N3CCC(c4ccc(-c5cnn(C)c5)cc4)CC3)ccc2C)CC1 (centres unmarked) ? Its inhibition at 10 µM was 108

So, Cc1ccc(C(=O)N2CC(c3ccc(-c4ccnn4C)cc3)C2)cc1NC(=O)c1ccc(N2CCOCC2)nc1 ? Its inhibition at 10 µM was 111

So, Cc1ccc(C(=O)N2CC[C@H](c3ccc(-c4ccnn4C)cc3)[C@H](C)C2)cc1NC(=O)c1ccc(Cl)nc1 (racemic) ? Its inhibition at 10 µM was 96

So, CCCCCCN1CCC(C(=O)Nc2cc(C(=O)N3CCC(c4ccc(-c5cnn(C)c5)cc4)CC3)ccc2C)C1 (centres unmarked) ? Its inhibition at 10 µM was 105

So, Cc1ccc(C(=O)N2CCC(c3ccc(-c4cnn(C)c4)cc3)CC2)cc1NC(=O)c1ccc(F)cc1F ? Its inhibition at 10 µM was 109

So, CC(C)Nc1ccc(C(=O)Nc2cc(C(=O)N3CCC(c4ccc(-c5cnn(C)c5)cc4)CC3)ccc2Cl)cn1 ? Its inhibition at 10 µM was 98

So, Cc1ccc(C(=O)N2CCC(c3ccc(-c4cnn(C)c4)cc3)CC2)cc1NC(=O)c1cnccc1Cl ? Its inhibition at 10 µM was 92

So, Cc1ccc(C(=O)N2CC(c3ccc(-c4cnn(C)c4)cc3)C2)cc1NC(=O)c1ccc(N2CCCC2)nc1 ? Its inhibition at 10 µM was 113

So, Cc1ccc(C(=O)N2CC(c3ccc(-c4cnn(C)c4)cc3)C2)cc1NC(=O)c1ccc(N(C)C2CCN(C)CC2)nc1 ? Its inhibition at 10 µM was 114

So, Cc1ccc(C(=O)N2CCC(c3ccc(-c4cnn(C)c4)cc3)CC2)cc1NC(=O)C1CCCCC1 ? Its inhibition at 10 µM was 106

So, Cc1ccc(C(=O)N2CCC(c3ccc4c(c3)CC(=O)N4)CC2)cc1NC(=O)c1ccc(Cl)nc1 ? Its inhibition at 10 µM was 93

Reference source for all entries: patent US9562035B2
